biological target: jack bean urease (JBU) (Canavalia ensiformis)
Sequence (P07374 whole entry, looked up): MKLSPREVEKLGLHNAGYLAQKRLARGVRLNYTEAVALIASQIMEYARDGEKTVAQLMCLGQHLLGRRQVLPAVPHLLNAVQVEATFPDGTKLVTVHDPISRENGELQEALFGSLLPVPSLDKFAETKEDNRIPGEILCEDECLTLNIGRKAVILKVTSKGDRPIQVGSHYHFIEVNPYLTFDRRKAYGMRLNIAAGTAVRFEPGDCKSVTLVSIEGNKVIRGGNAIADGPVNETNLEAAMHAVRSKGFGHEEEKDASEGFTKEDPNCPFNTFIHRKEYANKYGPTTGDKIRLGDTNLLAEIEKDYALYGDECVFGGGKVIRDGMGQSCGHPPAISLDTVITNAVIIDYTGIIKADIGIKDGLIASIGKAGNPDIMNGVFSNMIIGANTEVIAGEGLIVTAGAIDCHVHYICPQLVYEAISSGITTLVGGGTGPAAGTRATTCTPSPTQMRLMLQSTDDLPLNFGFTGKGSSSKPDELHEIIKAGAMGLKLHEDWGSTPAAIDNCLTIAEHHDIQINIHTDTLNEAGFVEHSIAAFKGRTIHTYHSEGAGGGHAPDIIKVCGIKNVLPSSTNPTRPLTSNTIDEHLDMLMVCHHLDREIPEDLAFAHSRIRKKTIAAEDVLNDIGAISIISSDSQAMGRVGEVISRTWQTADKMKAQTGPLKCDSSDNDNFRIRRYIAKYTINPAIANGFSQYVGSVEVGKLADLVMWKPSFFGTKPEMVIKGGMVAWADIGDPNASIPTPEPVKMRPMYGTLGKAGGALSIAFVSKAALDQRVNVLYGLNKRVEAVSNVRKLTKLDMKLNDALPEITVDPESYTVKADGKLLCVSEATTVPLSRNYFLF
parameter.measured: Ki
Enter the number, and then the unit.

Item: `C[C@@H]1O[C@@H](O[C@H]2C(=O)c3c(O)cc(O)cc3O[C@@H]2c2ccc(O)c(O)c2)[C@H](O)[C@H](O)[C@H]1O` | Ki: 200 µM

---

pIC50 by entry:
target: H. pylori urease (HPU) (Helicobacter pylori, UniProt P69996); construct: The resulting HPU preparation represents a crude enzyme extract; endogenous in cells; host or cells: H. pylori strain ATCC 43504 (crude enzyme extract, method of Matsubara et al. 2003); experiment: biochemical; assay type: biochemical, H. pylori strain ATCC 43504
Sequence (P14916 whole entry): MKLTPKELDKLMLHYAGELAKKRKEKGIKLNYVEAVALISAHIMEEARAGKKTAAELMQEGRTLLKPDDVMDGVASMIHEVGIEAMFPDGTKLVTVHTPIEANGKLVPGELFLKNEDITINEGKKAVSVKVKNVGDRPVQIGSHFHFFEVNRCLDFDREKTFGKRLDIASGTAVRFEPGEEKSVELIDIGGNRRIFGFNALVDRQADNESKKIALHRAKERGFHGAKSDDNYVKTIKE
Sequence (P69996 whole entry): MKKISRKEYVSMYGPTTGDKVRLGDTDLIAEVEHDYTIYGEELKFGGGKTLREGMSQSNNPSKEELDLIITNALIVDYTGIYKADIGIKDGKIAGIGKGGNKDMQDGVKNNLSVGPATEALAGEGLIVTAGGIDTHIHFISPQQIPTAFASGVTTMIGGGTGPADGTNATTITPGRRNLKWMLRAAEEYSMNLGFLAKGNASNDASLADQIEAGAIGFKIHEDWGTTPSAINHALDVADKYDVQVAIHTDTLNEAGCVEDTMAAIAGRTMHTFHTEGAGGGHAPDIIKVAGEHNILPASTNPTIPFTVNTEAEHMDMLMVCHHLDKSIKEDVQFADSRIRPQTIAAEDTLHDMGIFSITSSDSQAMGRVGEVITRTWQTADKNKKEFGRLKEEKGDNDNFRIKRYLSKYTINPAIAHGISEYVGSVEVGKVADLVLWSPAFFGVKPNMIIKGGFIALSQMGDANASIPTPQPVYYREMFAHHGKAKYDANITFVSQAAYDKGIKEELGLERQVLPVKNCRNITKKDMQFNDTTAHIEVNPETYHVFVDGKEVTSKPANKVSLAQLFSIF
Please report pIC50 as the negative decimal logarithm of the molar concentration, giving only the number.

chemical.string	parameter.measured	value.observed
C[C@@H]1O[C@@H](O[C@H]2C(=O)c3c(O)cc(O)cc3O[C@@H]2c2ccc(O)c(O)c2)[C@H](O)[C@H](O)[C@H]1O	pIC50	2.83

Item: `C[C@@H]1O[C@@H](O[C@H]2C(=O)c3c(O)cc(O)cc3O[C@@H]2c2ccc(O)cc2)[C@H](O)[C@H](O)[C@H]1O` | pIC50: 2.23
